System: Raldh2-/- embryos
recorded-conditions: mouse, in vivo, po, 2.5 mg/kg
Let's look at some compounds and their measured Teratogenesis.
value-type: Teratogenesis

1) CC(Cc1ccc(C(=O)O)cc1)c1ccc2c(c1)C(C)(C)CS2 (centres unmarked) [SHet100] : 11
2) CC1=C(/C=C/C(C)=C/C=C/C(C)=C/C(=O)O)C(C)(C)CCC1 [All-trans-RA] : 0
3) CC1(C)CCOc2ccc(C(=O)Oc3ccc(C=NNC(N)=S)cc3)cc21 [OHet72] : 0
4) CC1(C)CC(C)(C)c2cc(NC(=S)Nc3ccc([N+](=O)[O-])cc3)ccc2S1 [SHetA2] : 0
5) CC1=C(/C=C/C(C)=C\C=C\C(C)=C\C(=O)O)C(C)(C)CCC1 [9-cis-RA] : 0

====

Test system: organotypic cultures of human ovarian cancer cell lines and primary cultures
measurement-description: Ovarian carcinoma organotypic cultures (TUNEL, histology)
Type: cell-based
recorded-conditions: 1 μM retinoid in media
value-type: Induction of apoptosis (TUNEL) in organotypic cultures

1) CC1=C(/C=C/C(C)=C\C=C\C(C)=C\C(=O)O)C(C)(C)CCC1 [9-cis-RA] : Apoptosis was induced
2) COC(=O)c1ccc(C(=O)Nc2ccc3c(c2)C(C)(C)CC(C)(C)S3)cc1 [SHet50, reference compound] : Apoptosis was induced
3) CC1(C)CC(C)(C)c2cc(NC(=S)Nc3ccc([N+](=O)[O-])cc3)ccc2S1 : Apoptosis was induced
4) CCOC(=O)c1ccc(NC(=O)Nc2ccc3c(c2)C(C)(C)CC(C)(C)S3)cc1 : Apoptosis was induced
5) CC1=C(/C=C/C(C)=C/C=C/C(C)=C/C(=O)Nc2ccc(O)cc2)C(C)(C)CCC1 [4-HPR, reference compound] : Apoptosis was induced

====

Let's look at some compounds and their measured No. of −/− rescued.
Test system: Raldh2-/- embryos
recorded-conditions: Dose 2.5 mg/kg oral; E10.25
value-type: No. of −/− rescued

1. CC1=C(/C=C/C(C)=C/C=C/C(C)=C/C(=O)O)C(C)(C)CCC1 [All-trans-RA] : 13
2. CC1=C(/C=C/C(C)=C\C=C\C(C)=C\C(=O)O)C(C)(C)CCC1 [9-cis-RA] : 2
3. CC1(C)CC(C)(C)c2cc(NC(=S)Nc3ccc([N+](=O)[O-])cc3)ccc2S1 : 0
4. CC1(C)CCOc2ccc(C(=O)Oc3ccc(C=NNC(N)=S)cc3)cc21 : 0
